system: 293T cells; assay: Cell survival rate assay (CCK-8); format: cell-based; settings: difference vs YK-405
property: cell survival rate higher than YK-405 (%)
# value in %; strip the unit string

// below: answered compounds
1. CCCCCCCCC(CCCCCCCC)COC(=O)CCCCCN(CCCO)CCN(CCCO)CCCCCC(=O)OCC(CCCCCCCC)CCCCCCCC 28.62
2. CCCCCCCCCCCOC(=O)CCCN(CCO)CCN(CCO)CCCCCC(=O)OC(CCCCCCCC)CCCCCCCC 29.51
3. CCCCCCCCC(CCCCCCCC)C(=O)OCCCCCCN(CCO)CCN(CCO)CCCCCCOC(=O)C(CCCCCCCC)CCCCCCCC 30.84
4. CCCCCCCCC(CCCCCCCC)OC(=O)CCCCCN(CCO)CCN(CCO)CCCCCC(=O)OC(CCCCCCCC)CCCCCCCC 33.35

Lab note: measured cell survival rate higher than YK-405 of CCCCCCCCC(CCCCCCCC)OC(=O)CCCCCCCN(CCO)CCN(CCO)CCCCCCCC(=O)OC(CCCCCCCC)CCCCCCCC was 28.90

Lab note: measured cell survival rate higher than YK-405 of CCCCCCCCC(CCCCCCCC)COC(=O)CCCCCN(CCCO)CCCN(CCCO)CCCCCC(=O)OCC(CCCCCCCC)CCCCCCCC was 29.28
